# Measured Target: T1, SARS-CoV-2 RBD (Wuhan-1) (SARS-CoV-2, Wuhan-1, UniProt P0DTC2)
# T1 construct: source: Expi293, transfected, purified (Ni-NTA, SEC)
# Assay Remarks: SPR
# Run Parameters: both partners purified
Test Readout: kon (M⁻¹ s⁻¹)
Answer format: numeric, M⁻¹ s⁻¹ implied, no suffix.

Consider the binder eCC6.33.9 (antibody, V domains shown, copies: 2 + 2) VH: QVQLVQSGAEVKKPGSSVKVSCKSSGGTFSSSAYSWVRQAPGQGLEWMGTIIPILDITNYAQKFQGRVTITADKSTSTAFMELSSLRSEDTAVYYCAQRNQWDLIVYWGQGTLVTVSS VL: EIVLTQSPGTLSLSPGERATLSCRASQWVSSSYIAWYQQKPGQAPRLLIYGAESRATGIPDRFSGSGSGTDFTLTISRLEPEDFAVYYCQHYGSSSWTFGQGTKLEIK . State its measured kon.
153000

Provide kon value for the following binder: eCC6.33.6 (antibody, V domains shown, copies: 2 + 2) VH: QVQLVQSGAEVKKPGSSVKVSCKAPGGTFSSSAISWVRQAPGQGLEWMGGIIPILDITTYAQKFQGRVTITADKSTSTAFMELSSLRSEDTAVYYCALRNQWDLLIYWGQGTLVTVSS VL: EIVLTQSPGTLSLSPGERATLSCRASQSVSSHYLAWYQQKPGQAPRLLIYGASSRYTGIPDRFSGSGSGTDFTLTISRLEPEDFAVYYCQHYGSSHWTFGQGTKLEIK
126000

Respond only with kon recorded for eCC6.33.5 (antibody, V domains shown, copies: 2 + 2) VH: QVQLVQSGAEVKKPGSSVKVSCKAVGGTFSSSAIYWVRQAPGQGLEWMGGIIPILDIANYAQKFQGRVTITADKSTSTAFMELSSLRSEDTAVYYCALRNQWDLVVYWGQGTLVTVSS VL: EIVLTQSPGTLSLSPGERATLSCHASQSVSSSYLAWYQQKPGQAPRLLIYGAESRATGIPDRFSGSGSGTDFTLTISRLEPEDFAVYYCQHYGSSTWTFGQGTKLEIK
237000

Give the measured kon for eCC6.30.9 (antibody, V domains shown, copies: 2 + 2) VH: QVQLVQSGAEVKKPGSSVKVSCKASGGIFSIYAITWVRQAPGQGLEWMGAIIPIIGTANYAQKFQGRVTITADKSTSTAYMELSSLRSEDTAVYYCARDFRYCSSTRCYFNFDPWGQGTLVTVSS VL: DIQMTQSPSSLSASVGDRVTITCRASQSISNYLNWYQQEAGKAPKLLIYTASSLQSGVPSRFSGSGSGTDFTLTISSLQPEDFATYYCQQSYSTPRTFGQGTKVDIK
2.57e+06
